B1: HDV Ribozyme (parent)
chain: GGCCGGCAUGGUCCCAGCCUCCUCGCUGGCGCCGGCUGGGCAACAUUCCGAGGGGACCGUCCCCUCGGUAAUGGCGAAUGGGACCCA

- Variants of: B1
- Assay Text: self-cleavage, relative activity (ratio to wild type); higher = more cleavage; co-transcriptional
Some variants, each annotated with its measured self-cleavage.
Reply briefly: the number, and no unit.

Incoming: Return self-cleavage (reported value) for this variant: G28A A51U
Outgoing: 0.138

Incoming: Return self-cleavage (reported value) for this variant: U27G C84G
Outgoing: 0.378

Incoming: Return self-cleavage (reported value) for this variant: C14U C33U
Outgoing: 0.975

Incoming: Return self-cleavage (reported value) for this variant: U12A C41U
Outgoing: 0.147

Incoming: Return self-cleavage (reported value) for this variant: C19A G28A
Outgoing: 0.225

Incoming: Return self-cleavage (reported value) for this variant: G28U C64U
Outgoing: 0.0733

Incoming: Return self-cleavage (reported value) for this variant: G11A U65A
Outgoing: 0.396

Incoming: Return self-cleavage (reported value) for this variant: G2C U12C
Outgoing: 0.175

Incoming: Return self-cleavage (reported value) for this variant: C18G G67A
Outgoing: 0.101
